test: chemical genetic growth profiling, strain panel (AID 1159580);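 note: tested at 20 µM; growth read once vehicle control cultures reached saturation at 30 °C; 1 = growth at the plate median or of vehicle wells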; conditions: S. cerevisiae deletion strains, growth OD, locus YJR066W, strain TOR1, active compounds read low
The campaign covered roughly 5,500 compounds. About 2,000 (36%) were called active. Roughly 18% stayed inconclusive and do not appear here. The list shows a part of the results.
Cut-off 1 on normalized growth: below means 1, at or above means 0.

Field: below-cutoff. Rule: recorded normalized growth strictly less than 1. Subject: Clc1ccc(-c2noc(CSC3=NCCN3)n2)cc1
0

is_below(normalized growth, 1) for N=C(N)SCc1nc(-c2ccc(Cl)cc2)no1 ?
0

Quick check: does C[C@@H]1C[C@@H]([C@H](O)CC2CC(=O)NC(=O)C2)C(=O)[C@@H](C)C1 have normalized growth under 1?
1

normalized growth strictly < 1 for this molecule? C[C@H](COc1ccccc1)N[C@H](C)[C@H](O)c1ccc(O)cc1
1

Is the reported normalized growth for CSc1cccc(N2C(=O)CC(c3c(Cl)cccc3Cl)CC2=O)c1 strictly below 1?
1

Here's an entry: Nc1cc(-c2ccc(OC(F)(F)F)cc2)nn1-c1ccc(Cl)c(Cl)c1 . Is its normalized growth below 1?
1

Dear reviewer, please state whether Nc1nc2ncc(CNc3ccc(C(=O)N[C@@H](CCC(=O)O)C(=O)O)cc3)nc2c(=O)[nH]1 has normalized growth strictly beneath 1.
1

Does the reported normalized growth of the following molecule sit strictly below 1? CC(COc1ccccc1)N(CCCl)Cc1ccccc1 (stereo unspecified)
1

For CN(C)CCCO[C@H]1[C@@H](C(O)CO)OC2OC(C)(C)O[C@@H]21 (stereo partly specified) , is the recorded normalized growth below the cut-off of 1?
1

Say whether its normalized growth is strictly beneath 1. Entry: O=C1/C(=C/c2c(F)cccc2Cl)Cc2ccccc21
1

Recorded values, source PubChem BioAssay AID1159580.
